Can you tell me IC50 for the items I'm about to list?
System: L6
Test: Cytotoxicity against rat L6 cells after 72 hrs by Alamar blue assay
Format: cell-based
Conditions: L6, 72 h
Give your result as the value with the unit written after it.

QUERY: Requested field: IC50. Item: COc1cc([C@@H]2c3cc4c(cc3[C@H](O)[C@H]3COC(=O)[C@H]23)OCO4)cc(OC)c1OC
RESULT: 0.041 µM

QUERY: // query: COc1cc(O)c(-c2cc(-c3c(C)cc(O)c4c(OC)ccc(-c5c(O)cc(OC)c6c5C[C@@H](C)N[C@@H]6C)c34)c(O)c3c(OC)cc(C)cc23)c2c1[C@H](C)N[C@H](C)C2
RESULT: 15.9 µM

QUERY: Also, COc1cc(OC)c2c(c1-c1ccc(O)c3c(OC)cc(C)cc13)C[C@H](C)N[C@H]2C [ANCISTROEALAINE B] please.
RESULT: 77.8 µM

QUERY: Next up: COc1cc(OC)c(-c2ccc(O)c3c(OC)cc(C)cc23)c2c1C(C)=N[C@@H](C)C2
RESULT: 101 µM

QUERY: Note, next up: COc1cc(O)c(-c2ccc(OC)c3c(O)cc(C)c(-c4cc(-c5c(O)cc(OC)c6c5C[C@@H](C)N[C@H]6C)c5cc(C)cc(OC)c5c4O)c23)c2c1C(C)=N[C@H](C)C2
RESULT: 8.87 µM

QUERY: Quick one: COc1cc(C)cc2c(-c3c(O)cc(O)c4c3C[C@@H](C)N[C@H]4C)ccc(O)c12
RESULT: 79.1 µM

====

Test system: Trypanosoma brucei rhodesiense
Assay: […] activity against Trypanosoma brucei rhodesiense STIB 900 trypomastigote after 72 hrs by Alamar blue assay
Format: functional, organism-based
Calls of active or inactive are those of the source. The rule behind the calls is not given here.

# lineNotation, studySystem, Activity
records = [
    ("COc1cc(O)cc2c1C(C)=N[C@@H](C)C2", "Trypanosoma brucei rhodesiense", "inactive"),
    ("COc1cc(O)c2c(c1)C[C@H](C)N[C@H]2C", "Trypanosoma brucei rhodesiense", "inactive"),
    ("COc1cc(O)c2c(c1)C[C@H](C)N[C@@H]2C", "Trypanosoma brucei rhodesiense", "inactive"),
    ("COc1cc(O)c2c(c1)C[C@H](C)N=C2C", "Trypanosoma brucei rhodesiense", "inactive"),
]

====

Give measured selectivity ratio for each item. Keep answers brief.
Test: Selectivity index, ratio of IC50 for rat L6 cells to IC50 for chloroquine and pyrimethamine-resistant Plasmodium falciparum K1
Assay type: toxicity
Settings: read-out: Ratio IC50

QUERY: selectivity ratio for COc1cc(OC)c2c(c1-c1ccc(O)c3c(OC)cc(C)cc13)C[C@H](C)N[C@H]2C [ANCISTROEALAINE B] ?
RESULT: 102

QUERY: Also COc1cc(O)c(-c2cc(-c3c(C)cc(O)c4c(OC)ccc(-c5c(O)cc(OC)c6c5C[C@@H](C)N[C@@H]6C)c34)c(O)c3c(OC)cc(C)cc23)c2c1[C@H](C)N[C@H](C)C2 ?
RESULT: 249

QUERY: Lookup COc1cc(C)cc2c(-c3c(O)cc(O)c4c3C[C@@H](C)N[C@H]4C)ccc(O)c12
RESULT: 6.13

QUERY: What do you have for COc1cc(OC)c(-c2ccc(O)c3c(OC)cc(C)cc23)c2c1C(C)=N[C@@H](C)C2 ?
RESULT: 95.3

QUERY: One more molecule: COc1cc(O)c(-c2ccc(OC)c3c(O)cc(C)c(-c4cc(-c5c(O)cc(OC)c6c5C[C@@H](C)N[C@H]6C)c5cc(C)cc(OC)c5c4O)c23)c2c1C(C)=N[C@H](C)C2
RESULT: 70.4
